Provide the recorded normalized growth for the entries that follow.
Assay: chemical genetic growth profiling, strain panel (AID 1159580);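 note: tested at 20 µM; growth read once vehicle control cultures reached saturation at 30 °C; 1 = growth at the plate median or of vehicle wells; lower values mean less growth of the strain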
Settings: S. cerevisiae deletion strains, growth OD, locus YPL256C, strain CLN2, active compounds read low
Out of some 5,500 compounds screened, about 2,000 (36%) were called active. Roughly 18% stayed inconclusive and do not appear here. Some of the results follow.
// no unit string in output, number only

// query Could you tell me which normalized growth is on file for O=c1c(Sc2ccc(Cl)cc2)c(Sc2ccc(Cl)cc2)c1=O ?
// result 0.154

// query Also, Cc1ccc(Sc2c(Sc3ccc(C)cc3)c(=O)c2=O)cc1 please.
// result 0.172

// query Please answer likewise for CCN(CCO)CCCC(C)Nc1ccnc2cc(Cl)ccc12 (stereo not drawn)
// result 0.966

----------
Test: chemical genetic growth profiling, strain panel (AID 1159580);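 note: tested at 20 µM; growth read once vehicle control cultures reached saturation at 30 °C; 1 = growth at the plate median or of vehicle wells; lower values mean less growth of the strain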
Details: S. cerevisiae deletion strains, growth OD, locus YER016W, strain bim1
Screen size: about 5,500 compounds; about 2,000 (36%) were called active. Another 18% or so got no clear call; they are omitted. Cut-off read from the data, not from the text of the source: active = normalized growth mostly below about 0.91 (no sharp cut-off); inconclusive = no clear call, values can overlap the other calls; inactive = mostly above about 0.92. Some of the results follow.
Give your call using only these classes: true for active, false for inactive

// query In this assay, the call recorded for COCCc1ccc(OCC(O)CNC(C)C)cc1 (stereo not given) was what?
// result false

// query Can you check CO[C@H]1[C@H](O)[C@H](O[C@H]2CC[C@]3(C)C4CC[C@]5(C)C(C6=CC(=O)OC6)CC[C@]5(O)C4CC[C@@H]3C2)O[C@@H](C)[C@@H]1O (stereo not given in full) next?
// result false

// query And then O=C(O)c1c2ccccc2cc2ccccc12 , what is it?
// result false

// query Another compound: COc1cc(O)c(C(=O)/C=C/c2ccccc2)c(OC)c1
// result false

// query Please answer likewise for COc1cc(O)c(C(=O)/C=C/c2ccc(OC)c(O)c2)c(OC)c1
// result false

// query What about this compound? CC(=O)OCC(=O)[C@H]1CCC2C3CCC4=CC(=O)CC[C@]4(C)C3CC[C@@]21C (stereo not given in full)
// result false

// query Another compound to check: CCCCCCNC(=O)n1cc(F)c(=O)[nH]c1=O
// result true

// query Also COC1=CC(=O)C[C@@H](C)[C@]12Oc1c(Cl)c(OC)cc(OC)c1C2=O ?
// result false

// query Next entry: COc1cc(O)c(C(=O)/C=C/c2ccc(O)c(OC)c2)c(OC)c1
// result false

// query Another compound: COc1cc(/C=C/C(=O)/C=C(O)/C=C/c2ccc(O)c(OC)c2)ccc1O
// result true

----------
Experiment: chemical genetic growth profiling, strain panel (AID 1159580);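 note: tested at 20 µM; growth read once vehicle control cultures reached saturation at 30 °C; 1 = growth at the plate median or of vehicle wells; lower values mean less growth of the strain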
Settings: S. cerevisiae deletion strains, growth OD, locus YHR094C, strain hxt1
Among all 5,500 compounds or so, about 2,000 (36%) were called active. About 18% were inconclusive and are not listed. No stated cut-off is given here; in the data, active means normalized growth mostly below about 0.91 (no sharp cut-off); inconclusive means no clear call, values can overlap the other calls; inactive means mostly above about 0.92. The list shows a part of the results.
Log the outcome using a class from Y = active, N = inactive

// query Call for entry CC[C@H](/C=C/C(C)C1CCC2C3CCC4=CC(=O)CC[C@]4(C)C3CC[C@]12C)C(C)C (stereo not given in full) :
// result N

// query Subsequent entry: CC(=O)[C@H]1CCC2C3CCC4=CC(=O)CC[C@]4(C)C3CC[C@@]21C (stereo not given in full)
// result Y

// query One more compound: CCC(=O)O[C@H]1CCC2C3CCC4=CC(=O)CC[C@]4(C)C3CC[C@@]21C (stereo not given in full)
// result N

// query Check CC(=O)C1CCC2C3CC(=O)C4=CC(=O)CCC4(C)C3CCC12C (stereo not given) too.
// result N

// query Also C[C@H]1OC(n2cc(F)c(=O)[nH]c2=O)C(O)[C@@H]1O (stereo not given in full) , if possible.
// result N

Values were extracted from PubChem BioAssay AID1159580.
